Target: T1, Dimeric human CD48-mFc (human)
T1 construct: the whole entry is the construct; also called hCD48-mFc
T1 chain: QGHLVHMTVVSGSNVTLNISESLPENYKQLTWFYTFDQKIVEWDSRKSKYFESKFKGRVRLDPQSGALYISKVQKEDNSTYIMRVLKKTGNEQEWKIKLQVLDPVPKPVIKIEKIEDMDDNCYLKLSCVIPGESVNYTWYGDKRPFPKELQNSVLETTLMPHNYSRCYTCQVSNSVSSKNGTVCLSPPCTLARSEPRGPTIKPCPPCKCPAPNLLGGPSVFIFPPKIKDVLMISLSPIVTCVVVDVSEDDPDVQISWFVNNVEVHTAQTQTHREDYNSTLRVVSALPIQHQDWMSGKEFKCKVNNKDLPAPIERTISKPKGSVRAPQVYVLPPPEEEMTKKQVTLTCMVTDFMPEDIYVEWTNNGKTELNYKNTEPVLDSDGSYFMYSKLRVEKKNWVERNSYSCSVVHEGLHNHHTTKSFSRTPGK
Test: SPR (Biacore), antibody captured by anti-Fc, CD48 in solution, 37 C
Experimental: Measurements were conducted on a T100-2 BIACORE™ instrument (Biacore Life Sciences division of GE Healthcare, Piscataway, N.J.). […] The soluble CD48 was applied to the flow cell in separate injections at different concentrations, and kinetic association (kₐ) and dissociation (kd) rate constants were determined by fits to the kinetic binding data using Biacore software. […]
# reported koff; entries follow
// note: answer is a bare numeric in s⁻¹

Recorded results for 2 binders are shown here.
Please report the recorded koff for H4H1713N (antibody, V domains shown, Human IgG4 Fc (H4H)) VH: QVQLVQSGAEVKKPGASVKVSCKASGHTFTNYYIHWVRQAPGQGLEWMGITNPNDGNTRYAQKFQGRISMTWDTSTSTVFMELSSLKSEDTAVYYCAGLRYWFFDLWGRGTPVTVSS VL: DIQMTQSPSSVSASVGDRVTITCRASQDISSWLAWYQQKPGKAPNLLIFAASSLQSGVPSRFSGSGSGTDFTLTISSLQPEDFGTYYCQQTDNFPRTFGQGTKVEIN .
4.53e-05

Look up koff: H4H1781P (antibody, human IgG4, V domains shown, Human IgG4 Fc (H4H)) VH: QVQLVESGGGVVQPGRSLRLSCAASGFTFSNYGMHWVRQAPGKGLEWVAVIWYDDSNKNYADSVKGRFTISRDNSKNTLYLQMNSLRVEDTAVYYCARDRWTYSHFFEYWGQGTLVTVSS VL: DIQMTQSPSSVSASVGDRVTITCRASQGISSWLAWYQQKPGKAPNLLIYAASSLQSGVPSRFGGSGSGTDFSLTISGLQPEDFATYYCQQANSFPRTFGQGTKVEIK
4.89e-05

New cases:
Any idea what its koff is? The binder is H2M1763N (antibody, mouse IgG2, V domains shown, Human variable domains, mouse IgG2 Fc (H2M)) VH: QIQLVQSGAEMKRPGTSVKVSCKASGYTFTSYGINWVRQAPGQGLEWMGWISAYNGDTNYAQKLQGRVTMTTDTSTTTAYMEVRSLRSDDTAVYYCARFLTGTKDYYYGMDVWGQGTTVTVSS VL: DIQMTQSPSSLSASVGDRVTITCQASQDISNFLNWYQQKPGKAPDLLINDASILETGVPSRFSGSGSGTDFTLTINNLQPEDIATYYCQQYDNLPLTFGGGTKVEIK
0.000883

Form field: reported koff of H4H1775P (antibody, human IgG4, V domains shown, Human IgG4 Fc (H4H)) VH: QVQLVESGGGVVQPGRSLRLSCAASGFTFSNYGMHWVRQAPGKGLEWVAVIWYDESGKHYADSVKGRFTISRDNSQNTLYLQMTSLRAEDTAVYYCARDRWTYSHYFEYWGQGTLVTVSS VL: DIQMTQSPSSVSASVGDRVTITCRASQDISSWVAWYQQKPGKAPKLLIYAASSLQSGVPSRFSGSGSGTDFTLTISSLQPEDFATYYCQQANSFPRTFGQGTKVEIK
2.27e-05

Suppose we examine the binder H2M1710N (antibody, mouse IgG2, V domains shown, Human variable domains, mouse IgG2 Fc (H2M)) VH: QVQLVQSGADMKKPGASVRVSCKASGYTFTDYFIHWVRQAPGQGPEWMGWINPDSGATNYAQQFQGRVTMTRDTSISATYMEMSRLRSDDTAVFYCARDKDGSGWYLDDWGQGTLVTVSS VL: EIVLTQSPATLSLSPGERATLSCRASQSVNIYLAWYQQKPGQAPRLLIYDASNRASGIPARFSGSGSGTDFTLTISSLEPEDFAVYYCQQRSNWPPSITFGQGTRLEIK ; what koff value has been reported?
0.000426

Please give the measured koff for this binder: H4H1707N (antibody, V domains shown, Human IgG4 Fc (H4H)) VH: EGQLLESGGGLAQPGGSLRLSCAASGITFGRYAMSWVRQAPGKGLEWVSLISGSGGSTYHADSVKGRFTISRDNSKNTLYLQMNSLRAEDTAVYYCAIYNNYNWFDPWGQGTLVTVSS VL: EIVLTQSPGTLSLSPGERATLSCRASQSVSSNYLAWYQQKPGQAPRLLIYDASSRATDIPDRFSGSGSGTDFTLTISRLEPEDFAVYYCQQYGSSPRTFGQGTKVEIK
6.42e-05

Origin of measurements: patent US20130230533A1
